Measured values drawn from PubChem BioAssay AID1159580 for this set.

- protocol.text: chemical genetic growth profiling, strain panel (AID 1159580);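 note: tested at 20 µM; growth read once vehicle control cultures reached saturation at 30 °C; 1 = growth at the plate median or of vehicle wells; lower values mean less growth of the strain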
- test.context: S. cerevisiae deletion strains, growth OD, locus YGL173C, strain kem1
Screen size: about 5,500 compounds; about 2,000 (36%) were called active. Not shown: some 18% with an inconclusive outcome. Cut-off read from the data, not from the text of the source: active = normalized growth mostly below about 0.91 (no sharp cut-off); inconclusive = no clear call, values can overlap the other calls; inactive = mostly above about 0.92. The list shows a part of the results.
Give your call using only these classes: active, inactive

How did this test come out for CC(C)NNC(=O)c1ccncc1 ?
inactive

How did this test come out for O=S1OCC2C(CO1)C1(Cl)C(Cl)=C(Cl)C2(Cl)C1(Cl)Cl (configuration not stated) ?
inactive

How did this test come out for COC(=O)C(O)c1ccccc1 (configuration not stated) ?
inactive

How did this test come out for C=C1C(=O)OC2CC1C(OC(C)=O)C/C(C)=C/CC/C(C)=C/CC[C@]2(C)O (some centres not stated) ?
inactive

How did this test come out for CCNC(=O)CC[C@H](N)C(=O)O ?
inactive

How did this test come out for CC(C(=O)O)c1ccc(C(=O)c2cccs2)cc1 (configuration not stated) ?
inactive

How did this test come out for C=CC(N)CCC(=O)O (configuration not stated) ?
inactive

How did this test come out for C#CCCCCCCCCCCCC(O)CC(O)CO (configuration not stated) ?
inactive

How did this test come out for CCN(CC)C(=O)c1cccc(C)c1 ?
inactive

How did this test come out for COC(=O)C(C)c1ccc(C(=O)c2cccs2)cc1 (configuration not stated) ?
inactive

How did this test come out for CC(=O)OCC(OC(C)=O)C(OC(C)=O)C(OC(C)=O)C(OC(C)=O)C(COC(C)=O)OC(C)=O (configuration not stated) ?
inactive

How did this test come out for C#CCCCCCCCCCCCC(O)CC(O)COC(C)=O (configuration not stated) ?
active

How did this test come out for Nc1ccc(N=Nc2ccccc2)c(N)n1 ?
active

How did this test come out for C=CCSCC1Nc2cc(Cl)c(S(N)(=O)=O)cc2S(=O)(=O)N1 (configuration not stated) ?
inactive

How did this test come out for COC(=O)[C@@H]1OC(=O)[C@H]2O[C@@]23[C@@]1(C)CCC1[C@@]2(C)CCC(=O)C(C)(C)C2C[C@@H](OC(C)=O)[C@]13C (some centres not stated) ?
inactive

How did this test come out for CC(=O)OCC[C@H](C)CCC=C(C)C ?
inactive

How did this test come out for Cc1cccc(Nc2ccccc2C(=O)O)c1C ?
inactive

* * *

- protocol.text: chemical genetic growth profiling, strain panel (AID 1159580);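 note: tested at 20 µM; growth read once vehicle control cultures reached saturation at 30 °C; 1 = growth at the plate median or of vehicle wells; lower values mean less growth of the strain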
- test.context: S. cerevisiae deletion strains, growth OD, locus YNR030W, strain Alg12, active compounds read low
The campaign covered roughly 5,500 compounds. About 2,000 (36%) were called active. Another 18% or so got no clear call; they are omitted. The list shows a part of the results.
Please provide measured normalized growth for the entries that follow.
The answer should be a number; do not append a unit.

Return the recorded normalized growth value; entry: Cc1cccc2c1N(C(=S)Nc1ccccc1Cl)CCC2
0.906

Return the recorded normalized growth value; entry: COc1ccc(C(C)=O)cc1CSC(=NS(=O)(=O)c1ccccc1)Nc1cccc(F)c1
0.952

Return the recorded normalized growth value; entry: N#Cc1ncc(C(F)(F)F)cc1Oc1ccc(Cl)cc1
0.737

Return the recorded normalized growth value; entry: Nc1cc2c(cc1Cl)C(=O)NC2=O
0.985

Return the recorded normalized growth value; entry: Nc1ccc(N=Nc2ccc(S(N)(=O)=O)cc2)c2ccccc12
1.01
